These entries and their values trace back to PubChem BioAssay.

# System: Fibrinogen (Alexa647-labelled)
# assayText: fibrinogen binders on compound microarrays, profiling panel, artefact control for SMM control-protein annotation, biochemical, small-molecule microarray, 635/667 nm fluorescence (AID 1131);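 also: z-score merges 667 nm fluorescence with per-spot signal-to-noise over triplicate slides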
# measurementParameters: fibrinogen-A647 binding fluorescence, higher = more signal
Binning of composite z-score into classes: band A (below 0.1), band B (0.1 to below 0.9), band C (0.9 or more)

[
  {
    "compound": "C=CCC(OC(C)=O)[C@@H]1[C@@H](N(Cc2ccc(-c3cccc(C(F)(F)F)c3)o2)C(=O)Cc2ccc(F)cc2)c2cc(OCCCO)ccc2N1C(=O)Cc1ccc(OC)cc1 (some centres not stated)",
    "assignedLabel": "band A"
  },
  {
    "compound": "CC(C)OC(=O)C=C1C[C@@H](c2ccccc2C(F)(F)F)O[C@@H](c2ccccc2C(F)(F)F)O1",
    "assignedLabel": "band B"
  },
  {
    "compound": "COCC(=C=CC[C@H](O)c1ccccc1OCCO)C[C@H](O)c1cc(Cl)cc(Cl)c1O",
    "assignedLabel": "band C"
  },
  {
    "compound": "COc1ccc(NN2C(C(O)c3ccc([N+](=O)[O-])cc3)C=CC3C(=O)N(C4CCCCC4)C(=O)C32)cc1 (configuration not stated)",
    "assignedLabel": "band C"
  },
  {
    "compound": "CO[C@H]1O[C@H](CO)[C@@H](OC(=O)Nc2ccc(Br)cc2)[C@H](OC(=O)c2cc3ccccc3[nH]2)[C@H]1OC(=O)c1cc2ccccc2[nH]1",
    "assignedLabel": "band C"
  },
  {
    "compound": "COc1ccc(C(=O)Nc2ccc(CN3C(=O)[C@@]4(O[C@@H](CCn5cc([C@H](O)c6ccccc6)nn5)[C@H]([Si](C)(C)c5ccc(OC)cc5)[C@H]4C)c4ccccc43)cc2)cc1",
    "assignedLabel": "band B"
  },
  {
    "compound": "COC(=O)C(CC#Cc1ccc2c(c1)[C@]1(C(=O)N2)[C@H](C(=O)O)[C@H]2C(=O)O[C@H](c3ccccc3)[C@H](c3ccccc3)N2[C@@H]1c1ccc(O)cc1)C(=O)OC",
    "assignedLabel": "band A"
  },
  {
    "compound": "COc1ccc([Si](C)(C)[C@H]2[C@H](CCn3cc([C@H](O)c4ccccc4)nn3)O[C@@]3(C(=O)N(Cc4cccc(N5CCOC5=O)c4)c4ccccc43)[C@@H]2C)cc1",
    "assignedLabel": "band B"
  },
  {
    "compound": "COC(=O)[C@@]1(Cc2ccccc2)[C@H]2c3cc(C(=O)N4CCCC4)n(CC4CC4)c3C[C@H]2CN1C(=O)c1ccccc1",
    "assignedLabel": "band B"
  },
  {
    "compound": "COc1cc2c(cc1OC)CN(C(=O)[C@H]1[C@@H]3C(=O)O[C@@H](c4ccccc4)[C@@H](c4ccccc4)N3[C@@H](c3ccc(O)cc3)[C@]13C(=O)Nc1ccc(C#CCNC(N)=O)cc13)CC2",
    "assignedLabel": "band A"
  },
  {
    "compound": "O=C(NCc1ccc(F)cc1)[C@H]1C[C@H]2C(=O)N[C@@H](Cc3ccccc3)C(=O)N2[C@H]1c1ccc(O)cc1",
    "assignedLabel": "band A"
  },
  {
    "compound": "CC(C)(C)OC(=O)CC[C@@]1(C(N)=O)N=C(c2ccc(OCCCO)cc2)O[C@@H]1c1ccccc1",
    "assignedLabel": "band C"
  },
  {
    "compound": "[N-]=[N+]=Nc1ccccc1C[C@@]1(C(=O)NCCN2CCOCC2)N=C(c2ccc(OCCCO)cc2)O[C@@H]1c1ccccc1",
    "assignedLabel": "band C"
  },
  {
    "compound": "C=CC[C@]12N=C(c3ccc(OCCCO)cc3)O[C@H]1c1ccccc1N(Cc1ccccc1)C2=O",
    "assignedLabel": "band A"
  },
  {
    "compound": "COCCOC(=O)N1C(=O)[C@@]2(c3cc(C#CC4=CCCCC4)ccc31)[C@H](C(N)=O)[C@H]1C(=O)O[C@H](c3ccccc3)[C@H](c3ccccc3)N1[C@@H]2c1ccc(OCCO)cc1",
    "assignedLabel": "band C"
  },
  {
    "compound": "C=CCOC(=O)[C@H]1[C@@H]2C(=O)O[C@@H](c3ccccc3)[C@@H](c3ccccc3)N2[C@@H](c2ccc(OCCOC(=O)[C@H]3C[C@H]4C(=O)N5CCC[C@H]5C(=O)N4[C@H]3c3ccc(O)cc3)cc2)[C@]12C(=O)Nc1ccc(I)cc12",
    "assignedLabel": "band B"
  }
]
